Entries annotated with measured pIC50
Target Entity: Isoleucyl-tRNA synthetase (Rattus norvegicus, UniProt O35880)
Sequence (O35880 whole entry): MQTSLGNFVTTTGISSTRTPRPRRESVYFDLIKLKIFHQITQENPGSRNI
Interpret pIC50 as the negative base-10 log of the concentration measured in mol/L.

Sample answers from the record:
1. CCCC[C@@]1(OCSC)CC[C@]2(CC[C@H](C)[C@@H](C/C=C(C)/C=C/[C@H](O)[C@@H](C)/C=C/C(=O)O)O2)O[C@H]1/C=C/C(C)=C/C(=O)O: 6.45
2. CCCC[C@@]1(OC(=O)CCC(=O)O)CC[C@]2(CC[C@H](C)[C@@H](C/C=C(C)/C=C/[C@H](O)[C@@H](C)/C=C/C(=O)O)O2)O[C@H]1/C=C/C(C)=C/C(=O)O [REVEROMYCIN A]: 8.71

Moving on to another compound below.
Simply: CCCC[C@@]1(O)CC[C@]2(CC[C@H](C)[C@@H](C/C=C(C)/C=C/[C@H](O)[C@@H](C)/C=C/C(=O)O)O2)O[C@H]1/C=C/C(C)=C/C(=O)O , Isoleucyl-tRNA synthetase (Rattus norvegicus, UniProt O35880), pIC50 = 7.13

* * *

Tested on: NRK
Test Details: Morphological reversion of srcts-NRK cells concentration at 100 ug/mL
Assay type: functional, Rattus norvegicus
Observation Type: Reversion

1) CCCC[C@]1([C@H](/C=C/C(C)=C/C(=O)O)OC)CC[C@]2(CC[C@H](C)[C@@H](C/C=C(C)/C=C/[C@H](O)[C@@H](C)/C=C/C(=O)O)O2)O1: <20%
2) CCCC[C@@]1(OC(=O)CCC(=O)O)CC[C@]2(CC[C@H](C)[C@@H](CCC(C)CC[C@H](O)[C@@H](C)CCC(=O)O)O2)O[C@H]1CCC(C)CC(=O)O (stereo partly drawn): <20%
3) CCCC[C@@]1(OCSC)CC[C@]2(CC[C@H](C)[C@@H](C/C=C(C)/C=C/[C@H](O)[C@@H](C)/C=C/C(=O)O)O2)O[C@H]1/C=C/C(C)=C/C(=O)O: >80%
4) CCCC[C@@]1(OC)CC[C@]2(CC[C@H](C)[C@@H](C/C=C(C)/C=C/[C@H](O)[C@@H](C)/C=C/C(=O)O)O2)O[C@H]1/C=C/C(C)=C/C(=O)O: >80%

The reported Reversion of the molecule CCCC[C@@]1(OC(=O)CCC(=O)O)CC[C@]2(CC[C@H](C)[C@@H](C/C=C(C)/C=C/[C@H](OC(C)=O)[C@@H](C)/C=C/C(=O)O)O2)O[C@H]1/C=C/C(C)=C/C(=O)O was >80%

The reported Reversion of the molecule CCCC[C@@]1(OC(=O)CCC(=O)O)CC[C@]2(CC[C@H](C)[C@@H](C/C=C(C)/C=C/[C@H](OC)[C@@H](C)/C=C/C(=O)O)O2)O[C@H]1/C=C/C(C)=C/C(=O)O was <20%

The reported Reversion of the molecule CCCC[C@@]1(OC(=O)CCC(=O)O)CC[C@]2(CC[C@H](C)[C@@H](C/C=C(C)/C=C/[C@H](O)[C@@H](C)/C=C/C(=O)O)O2)O[C@H]1/C=C/C(C)=C/C(=O)O was >80%

The reported Reversion of the molecule CCCC[C@@]1(OC(=O)CCC(=O)OC)CC[C@]2(CC[C@H](C)[C@@H](C/C=C(C)/C=C/[C@H](O)[C@@H](C)/C=C/C(=O)OC)O2)O[C@H]1/C=C/C(C)=C/C(=O)OC was <20%

The reported Reversion of the molecule CCCC[C@@]1(OCSC)CC[C@]2(CC[C@H](C)[C@@H](C/C=C(C)/C=C/[C@H](O)[C@@H](C)/C=C/C(=O)O)O2)O[C@H]1/C=C/C(C)=C/C(=O)OC was <20%

The reported Reversion of the molecule CCCC[C@]1([C@H](/C=C/C(C)=C/C(=O)O)OC(=O)CCC(=O)O)CC[C@]2(CC[C@H](C)[C@@H](C/C=C(C)/C=C/[C@H](O)[C@@H](C)/C=C/C(=O)O)O2)O1 was <20%

The reported Reversion of the molecule CCCC[C@@]1(OC(=O)CCC(=O)OC)CC[C@]2(CC[C@H](C)[C@@H](C/C=C(C)/C=C/[C@H](O)[C@@H](C)/C=C/C(=O)OC)O2)O[C@H]1/C=C/C(C)=C/C(=O)O was >80%

The reported Reversion of the molecule CCCC[C@@]1(O)CC[C@]2(CC[C@H](C)[C@@H](C/C=C(C)/C=C/[C@H](O)[C@@H](C)/C=C/C(=O)O)O2)O[C@H]1/C=C/C(C)=C/C(=O)O was <20%

The reported Reversion of the molecule CCCC[C@]1([C@@H](O)/C=C/C(C)=C/C(=O)O)CC[C@]2(CC[C@H](C)[C@@H](C/C=C(C)/C=C/[C@H](O)[C@@H](C)/C=C/C(=O)O)O2)O1 was <20%
